Measured OD450 at 0.02 nM, listed per entry.
TARGET UNDER TEST: biotinylated labeled human GPC3 protein (produced in-house) (human, UniProt P51654 25-559, limits assumed, biotinylated (Dojindo, Cat. No. LK03); sites not stated)
ASSAY PROTOCOL: ELISA, biotinylated human GPC3 protein
Just the number please, in OD450, no unit attached.

// fetch OD450 at 0.02 nM given entry hAb003LH2L1a (antibody, human IgG1, V domains shown, Humanized F2.154.1; VH H2 + VL L1a; expressed as human IgG1) VH: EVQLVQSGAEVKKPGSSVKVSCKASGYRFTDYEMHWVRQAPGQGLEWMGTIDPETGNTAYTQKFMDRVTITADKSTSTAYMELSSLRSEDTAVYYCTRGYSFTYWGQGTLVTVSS VL: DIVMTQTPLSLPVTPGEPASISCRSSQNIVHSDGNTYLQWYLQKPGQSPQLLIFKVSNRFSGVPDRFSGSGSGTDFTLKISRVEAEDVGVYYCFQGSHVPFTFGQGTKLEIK 0.423

// fetch OD450 at 0.02 nM given entry hAb001H1aL1b (antibody, human IgG1, V domains shown, Humanized F2.169.2; VH H1a + VL L1b; expressed as human IgG1) VH: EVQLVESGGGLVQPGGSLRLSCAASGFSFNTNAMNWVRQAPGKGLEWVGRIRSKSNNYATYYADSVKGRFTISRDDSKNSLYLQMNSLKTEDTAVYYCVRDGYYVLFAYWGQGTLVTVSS VL: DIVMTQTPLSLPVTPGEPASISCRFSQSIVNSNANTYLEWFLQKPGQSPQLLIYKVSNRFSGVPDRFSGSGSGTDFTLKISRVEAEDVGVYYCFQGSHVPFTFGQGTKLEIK 0.809

// fetch OD450 at 0.02 nM given entry hAb003LH1L1 (antibody, human IgG1, V domains shown, Humanized F2.154.1; VH H1 + VL L1; expressed as human IgG1) VH: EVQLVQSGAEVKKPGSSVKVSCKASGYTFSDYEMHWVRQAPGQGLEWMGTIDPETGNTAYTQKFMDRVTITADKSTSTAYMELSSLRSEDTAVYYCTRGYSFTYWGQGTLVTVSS VL: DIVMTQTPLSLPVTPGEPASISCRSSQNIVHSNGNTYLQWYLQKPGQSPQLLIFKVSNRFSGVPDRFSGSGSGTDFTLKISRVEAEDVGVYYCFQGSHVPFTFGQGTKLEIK 1.19

FYI, the data here is from patent US20260116991A1.
